As shown below, each of these compounds has a reported IC50 value.
system: control seedlings; test: Seedling assay, control (herbicide sensitive) seedlings; type: in vivo, maize; conditions: Zea mays, read-out: concentration inhibiting shoot growth 50%
Kindly provide the numeric value in nM only, without the unit symbol.

Prompt: // returns reported IC50 for input CC(C)C1(C)NC(c2nc3ccccc3cc2C(=O)O)=NC1=O (centres unmarked)
Response: 30

Prompt: // returns reported IC50 for input COc1nc(C)nc(NC(=O)NS(=O)(=O)c2ccccc2Cl)n1
Response: 10

----------
system: unselected maize callus tissue; experiment: Callus culture growth inhibition, unselected tissue; type: cell-based; conditions: Zea mays, 336 h, read-out: level giving a 50% growth inhibition
test-readout: IC50

Illustrative cases are given below, each with its answer.
molecule="CC(C)C1(C)NC(c2nc3ccccc3cc2C(=O)O)=NC1=O (centres unmarked)" tested_system="unselected maize callus tissue" test_readout=IC50 readout_value="0.1 to 0.3 µg/mL"
molecule="CC(C)C1(C)NC(c2ncccc2C(=O)O)=NC1=O (centres unmarked)" tested_system="unselected maize callus tissue" test_readout=IC50 readout_value="0.1 to 0.3 µg/mL"
molecule="CCc1cnc(C2=NC(=O)C(C)(C(C)C)N2)c(C(=O)O)c1 (centres unmarked)" tested_system="unselected maize callus tissue" test_readout=IC50 readout_value="0.1 to 0.3 µg/mL"

Prompt: Fill in the recorded IC50 for this molecule, with unselected maize callus tissue as test system: COc1nc(C)nc(NC(=O)NS(=O)(=O)c2ccccc2Cl)n1
Response: 0.01 µg/mL

Prompt: Fill in the recorded IC50 for this molecule, with unselected maize callus tissue as test system: Cc1cc(C)n2nc(S(=O)(=O)Nc3c(Cl)cccc3Cl)nc2n1
Response: 0.1 to 0.3 µg/mL
